Molecular target: DGKα (Homo sapiens (Human), UniProt P23743)
Sequence (P23743 whole entry, looked up): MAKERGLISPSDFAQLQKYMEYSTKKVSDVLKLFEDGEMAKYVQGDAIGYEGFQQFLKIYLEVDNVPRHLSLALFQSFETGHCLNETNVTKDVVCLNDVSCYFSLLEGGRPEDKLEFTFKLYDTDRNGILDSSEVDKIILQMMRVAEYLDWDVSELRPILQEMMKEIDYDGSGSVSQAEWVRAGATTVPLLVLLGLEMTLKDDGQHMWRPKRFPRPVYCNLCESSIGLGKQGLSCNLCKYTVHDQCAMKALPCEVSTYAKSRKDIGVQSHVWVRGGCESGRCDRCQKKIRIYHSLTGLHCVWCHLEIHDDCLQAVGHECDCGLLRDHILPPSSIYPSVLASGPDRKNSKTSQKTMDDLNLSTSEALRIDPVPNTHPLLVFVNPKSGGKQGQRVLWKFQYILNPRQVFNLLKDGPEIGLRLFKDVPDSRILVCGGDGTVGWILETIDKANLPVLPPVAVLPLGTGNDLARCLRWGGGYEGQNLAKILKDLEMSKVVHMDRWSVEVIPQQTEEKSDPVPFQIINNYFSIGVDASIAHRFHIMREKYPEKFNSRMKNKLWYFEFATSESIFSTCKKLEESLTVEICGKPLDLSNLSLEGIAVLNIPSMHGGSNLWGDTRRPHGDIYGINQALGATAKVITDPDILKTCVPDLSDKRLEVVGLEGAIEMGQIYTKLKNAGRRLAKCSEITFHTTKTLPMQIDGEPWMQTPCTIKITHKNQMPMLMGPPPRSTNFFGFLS
Assay: DGKα ADPGLO assay
Assay type: biochemical
observation type: IC50 (nM)
Write down the numeric answer in nM and omit the unit.

Query: Give the reported IC50 for this molecule. C[C@@H]1CN(c2cc(=O)n(C)c3ccc(C#N)nc23)CC[C@H]1Oc1cccc(C2CC2)c1 (single isomer, unassigned)
Reply: 0.51

Query: Indicate its recorded IC50; the molecule in question is CC[C@@H]1CN(c2cc(=O)n(C)c3ccc(C#N)nc23)CC[C@H]1Oc1cccc(C(C)C)c1 (single isomer, unassigned)
Reply: 5.2

###

Field: pIC50. Provide a value for each of the compounds that follow.
Target: DGKα (Homo sapiens (Human), UniProt P23743)
Test: biochemical
Assay type: biochemical
Conditions: liposome (LIPGLO) assay; read-out: DGKα LIPGLO IC50
Please report pIC50 as the negative decimal logarithm of the molar concentration, giving only the number.

Query: Using the record for CC[C@@H]1CN(c2cc(=O)n(C)c3ccc(C#N)nc23)CC[C@@H]1Oc1cccc(C(C)(C)C)c1 [Example 166] , state its measured pIC50.
Reply: 7.34

Query: Answer with the recorded pIC50 for the compound listed here: Cn1c(=O)c(C#N)c(N2CCC(Oc3ccccc3C(F)(F)F)CC2)c2nc(Cl)ccc21
Reply: 4.92

Query: Indicate its recorded pIC50; the compound in question is C[C@@H]1CN(c2cc(=O)n(C)c3ccc(C#N)nc23)CC[C@H]1Oc1ccc(C2CCCC2)cc1 (single isomer, unassigned) [Example 102]
Reply: 7.17

Query: Look up and state reported pIC50 for Cc1cc(OC2CCN(c3cc(=O)n(C)c4ccc(C#N)nc34)CC2)nc(C(C)C)n1
Reply: 6.09

Query: Given the compound CC[C@@H]1CN(c2cc(=O)n(C)c3ccc(C#N)nc23)CC[C@@H]1Oc1cccc(C(F)(F)F)c1 , write its reported pIC50.
Reply: 6.00

Query: For the compound Cc1cc(OC(F)(F)F)ccc1OC1CCN(c2c(C#N)c(=O)n(C)c3ccc(Cl)nc23)CC1 , give its measured pIC50 value.
Reply: 5.42

Query: Identify measured pIC50 associated with Cn1c(=O)cc(N2CCC(Oc3cnc4ccccc4n3)CC2)c2nc(C#N)ccc21
Reply: 5.24

###

System: human venous whole blood, CD8 positive population (pERK)
Assay: DGK human whole blood pERK assay
Type: cell-based
Details: human whole blood pERK; read-out: DGK HWB
observation type: pEC50
Friendly reminder that pEC50 comes from taking -log10 of the concentration in mol/L.

Query: State its pEC50 for this molecule: CC(C)c1ccc(O[C@H]2CCN(c3cc(=O)n(C)c4ccc(C#N)nc34)C[C@H]2C)nc1 (single isomer, unassigned) [Example 207]
Reply: 4.92

Query: Tell me its pEC50 given CC1CN(c2c(C#N)c(=O)n(C)c3ccc(C#N)nc23)CCC1N(C)Cc1ccc(F)cc1 (single isomer, unassigned) [Example 325] as the entry.
Reply: 4.70

Query: Please report the measured pEC50 for CCO[C@H]1CN(c2cc(=O)n(C)c3ccc(C#N)nc23)CC[C@@H]1Oc1cc(C(F)(F)F)ccn1 [Example 366]
Reply: 4.70

Query: Read the entry CCO[C@H]1CN(c2cc(=O)n(C)c3ccc(C#N)nc23)CC[C@@H]1Oc1cccc(OC(F)(F)F)c1 [Example 351] and write its reported pEC50.
Reply: 6.68

Query: Assign pEC50 to the following record: CC1CN(c2cc(=O)n(C)c3ccc(C#N)nc23)CCC1N(C)C(=O)c1ccc(F)cc1 (single isomer, unassigned) [Example 285]
Reply: 4.70

Query: Answer with the recorded pEC50 of CC1CN(c2c(C#N)c(=O)n(C)c3ccc(C#N)nc23)CCC1N(C)Cc1ccc(F)cc1 (single isomer, unassigned) [Example 323] only.
Reply: 4.92

Query: Kindly indicate its recorded pEC50. Item: CCO[C@H]1CN(c2cc(=O)n(C)c3ccc(C#N)nc23)CC[C@@H]1Oc1ccccc1C(F)(F)F [Example 346]
Reply: 4.70

Origin of the recorded values: patent US11964973B2
